The measured values listed here are drawn from PubChem BioAssay.

Tested on: Hepatitis C virus NS3 helicase
Assay: HCV NS3 helicase inhibitors, primary screen, biochemical, fluorescence polarization, LOPAC1280 library (AID 687035)
Settings: Purified HCV NS3 helicase, Cy5-dT15 ssDNA binding fluorescence polarization; stronger effect = higher value; concentration not given here
Each entry below lists one item and its recorded inhibition value.
Just the number in %, nothing appended.

Solved cases (2 shown):
COMPOUND: NCCCCN=C(N)N
UNIT_NAME: %
inhibition: 1
//
COMPOUND: CCNC(=O)N1CCN(CCCC(c2ccc(F)cc2)c2ccc(F)cc2)CC1
UNIT_NAME: %
inhibition: -1

Recorded result, `O=C(O)c1cc2cc(F)ccc2[nH]1` , inhibition: -2

Recorded result, `NC1(C(=O)O)CC1` , inhibition: -2

Recorded result, `Cc1ccc(/C(=C\CN2CCCC2)c2ccccn2)cc1` , inhibition: 1

Recorded result, `CCOC(=O)Nc1ccc(NCc2ccc(F)cc2)nc1N` , inhibition: -3

Recorded result, `CC[C@H](C)C(=O)O[C@H]1CCC=C2C=C[C@H](C)[C@H](CC[C@@H]3C[C@@H](O)CC(=O)O3)[C@H]21` , inhibition: -1
